- Measurement Target: human TLR7 (Homo sapiens, UniProt Q9NYK1)
- Sequence (Q9NYK1 27-1049): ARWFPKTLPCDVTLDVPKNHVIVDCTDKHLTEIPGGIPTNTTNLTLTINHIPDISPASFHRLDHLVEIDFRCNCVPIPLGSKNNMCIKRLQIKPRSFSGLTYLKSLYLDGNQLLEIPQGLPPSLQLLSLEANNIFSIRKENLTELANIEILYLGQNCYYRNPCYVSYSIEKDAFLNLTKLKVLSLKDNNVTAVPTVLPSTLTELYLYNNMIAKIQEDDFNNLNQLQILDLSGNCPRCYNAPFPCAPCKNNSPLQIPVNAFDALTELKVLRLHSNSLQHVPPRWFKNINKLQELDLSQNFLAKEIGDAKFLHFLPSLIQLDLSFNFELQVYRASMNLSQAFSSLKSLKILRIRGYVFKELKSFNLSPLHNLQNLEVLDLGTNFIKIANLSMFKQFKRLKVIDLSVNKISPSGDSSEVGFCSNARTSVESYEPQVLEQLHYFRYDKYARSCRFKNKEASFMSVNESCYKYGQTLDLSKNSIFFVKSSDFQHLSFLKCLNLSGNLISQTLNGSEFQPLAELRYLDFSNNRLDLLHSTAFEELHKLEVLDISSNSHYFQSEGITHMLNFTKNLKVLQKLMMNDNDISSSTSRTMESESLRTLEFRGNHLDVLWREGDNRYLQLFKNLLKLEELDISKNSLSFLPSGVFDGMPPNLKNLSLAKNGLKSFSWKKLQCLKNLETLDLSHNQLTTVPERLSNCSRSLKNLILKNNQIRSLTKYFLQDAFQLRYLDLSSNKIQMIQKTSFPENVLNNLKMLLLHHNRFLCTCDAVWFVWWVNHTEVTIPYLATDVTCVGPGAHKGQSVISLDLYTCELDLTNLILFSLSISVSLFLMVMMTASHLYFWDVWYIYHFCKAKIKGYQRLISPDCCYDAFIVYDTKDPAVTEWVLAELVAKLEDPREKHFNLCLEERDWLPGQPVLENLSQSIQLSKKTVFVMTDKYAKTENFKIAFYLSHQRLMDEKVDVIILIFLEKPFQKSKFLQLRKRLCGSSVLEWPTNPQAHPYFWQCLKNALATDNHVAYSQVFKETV
- Protocol Notes: TLR7 inhibition reporter assay (HEK-Blue cells, SEAP reporter, gardiquimod stimulation)
- Particulars: HEK-Blue cells overexpressing human TLR7, SEAP reporter, gardiquimod 7.5 μM
- Description: TLR7/8/9 Inhibition Reporter Assays HEK-Blue™-cells (Invivogen) overexpressing human TLR7, TLR8 or TLR9 receptors were used for screening inhibitors of these receptors using an inducible SEAP (secreted embryonic alkaline phosphatase) reporter gene under the control of the IFN-β minimal promoter fused to five NF-κB and AP-1-binding sites. […]
Assay Metric: IC50 (nM)
Write it as a number; the unit nM goes unstated.

Recorded IC50, per entry:
- Compound: "Cc1cc(-c2[nH]c3ccc(C4CCC5(CC4)NC(=O)NC5=O)cc3c2C(C)C)cc(C)n1 (stereo not shown) [Example 366]"
  IC50 (nM): 6
- Compound: "Cc1cc(-c2[nH]c3ccc(CCN4CC[C@H](F)C4)cc3c2C(C)C)cn(C)c1=O [Example 408]"
  IC50 (nM): 15
- Compound: "COCCC(=O)N1CCCC(c2ccc3[nH]c(-c4cc(C)nc(C)c4)c(C(C)C)c3c2)C1 (stereo not shown) [Example 208]"
  IC50 (nM): 6
- Compound: "COc1cc(-c2[nH]c3ccc(C4CCC(NCC(F)F)CC4)cc3c2C(C)C)cn2ncnc12 (single isomer, unassigned) [Example 68]"
  IC50 (nM): 0.85
- Compound: "CCCN1CC(c2ccc3[nH]c(-c4cn(C)c(=O)c(Cl)c4C)c(C(C)C)c3c2)C1 [Example 500]"
  IC50 (nM): 16
- Compound: "COc1cc(-c2[nH]c3ccc(C4CCC(NC5CC5)CC4)cc3c2C(C)C)cn2ncnc12 (stereo not shown) [Example 11]"
  IC50 (nM): 2
- Compound: "Cc1cc(-c2[nH]c3ccc(C4CCCN(C(=O)C5C(C)(C)C5(C)C)C4)cc3c2C(C)C)cc(C)n1 (stereo not shown) [Example 198]"
  IC50 (nM): 384
- Compound: "Cc1c(-c2[nH]c3ccc(C4CN(CCCC(F)(F)F)C4)cc3c2C(C)C)cn2cnnc2c1C [Example 554]"
  IC50 (nM): 18

The reported human TLR7 (Homo sapiens, UniProt Q9NYK1) IC50 of CNC1CCC(c2ccc3[nH]c(-c4cn5ncnc5c(C)c4C)c(C(C)C)c3c2)CC1 (stereo not shown) [Example 89] is 0.23

The reported human TLR7 (Homo sapiens, UniProt Q9NYK1) IC50 of Cc1cc(-c2[nH]c3ccc(C4CCCN(C(=O)C5(C)COC5)C4)cc3c2C(C)C)cc(C)n1 (stereo not shown) [Example 203] is 56
